Just for reference, ChEMBL document CHEMBL5120922 is where these values come from.

TARGET_SYSTEM: Phosphatidylinositol 4,5-bisphosphate 3-kinase catalytic subunit delta isoform (Homo sapiens)
Sequence (whole entry): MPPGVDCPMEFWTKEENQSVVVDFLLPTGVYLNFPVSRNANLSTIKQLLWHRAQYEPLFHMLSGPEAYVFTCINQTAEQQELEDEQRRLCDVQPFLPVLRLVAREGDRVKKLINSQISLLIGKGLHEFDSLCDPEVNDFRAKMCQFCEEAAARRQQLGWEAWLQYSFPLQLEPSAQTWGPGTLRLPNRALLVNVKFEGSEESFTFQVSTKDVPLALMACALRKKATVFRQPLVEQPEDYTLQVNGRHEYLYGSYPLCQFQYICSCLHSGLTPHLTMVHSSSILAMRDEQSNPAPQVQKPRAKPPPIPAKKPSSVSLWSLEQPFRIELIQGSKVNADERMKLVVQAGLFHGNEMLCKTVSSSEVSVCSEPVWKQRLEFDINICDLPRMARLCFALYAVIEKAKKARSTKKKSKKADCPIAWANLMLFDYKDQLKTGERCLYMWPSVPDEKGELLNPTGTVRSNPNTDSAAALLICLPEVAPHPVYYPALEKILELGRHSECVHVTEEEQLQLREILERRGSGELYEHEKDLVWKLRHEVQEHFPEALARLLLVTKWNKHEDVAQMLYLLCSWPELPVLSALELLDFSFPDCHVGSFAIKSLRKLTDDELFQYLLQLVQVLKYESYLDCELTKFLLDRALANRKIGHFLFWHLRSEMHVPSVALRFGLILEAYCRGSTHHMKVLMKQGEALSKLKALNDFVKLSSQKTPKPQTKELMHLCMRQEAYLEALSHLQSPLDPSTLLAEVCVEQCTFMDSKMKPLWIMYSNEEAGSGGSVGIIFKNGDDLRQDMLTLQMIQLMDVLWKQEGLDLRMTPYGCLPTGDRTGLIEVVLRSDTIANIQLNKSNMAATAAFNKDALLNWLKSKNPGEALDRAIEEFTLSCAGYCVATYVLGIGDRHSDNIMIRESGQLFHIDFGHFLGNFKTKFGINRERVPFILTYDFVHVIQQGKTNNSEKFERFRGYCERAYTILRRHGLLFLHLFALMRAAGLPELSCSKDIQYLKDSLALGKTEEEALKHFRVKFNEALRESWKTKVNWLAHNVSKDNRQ
PROTOCOL_NOTES: Inhibition of N-terminal His6-tagged recombinant full length human PI3Kdelta expressed in baculovirus infected Sf21 insect cells at 1 uM by HTRF assay relative to control
Measured inhibition of individual entries
Enter your answer as a number in %; do not include the unit.

Item `C[C@H]1CC[C@@H](c2nc3cccc(Cl)c3c(=O)n2-c2ccccc2)N1c1nc(N)nc2[nH]ccc12` has what recorded inhibition? 37

Item `C[C@H]1CC[C@@H](c2nc3cccc(Cl)c3c(=O)n2-c2ccccc2)N1c1cc(Cl)nc(N)n1` has what recorded inhibition? 23

Item `C[C@H]1CC[C@@H](c2nc3cccc(Cl)c3c(=O)n2-c2cccc(F)c2)N1c1nc(N)nc2[nH]cnc12` has what recorded inhibition? -4

Item `C[C@H]1CC[C@@H](c2nc3cccc(Cl)c3c(=O)n2-c2ccccc2)N1c1nc(N)nc(N)c1C#N` has what recorded inhibition? -1

Item `C[C@H]1CC[C@@H](c2nc3cccc(Cl)c3c(=O)n2-c2ccccc2)N1c1nc(N)nc2[nH]cnc12` has what recorded inhibition? -2

Item `C[C@H]1CC[C@@H](c2nc3cccc(Cl)c3c(=O)n2-c2cc(F)cc(F)c2)N1c1nc(N)nc(N)c1C#N` has what recorded inhibition? 1

Item `C[C@H]1CC[C@@H](c2nc3cccc(Cl)c3c(=O)n2-c2ccccc2)N1c1ccnc(N)n1` has what recorded inhibition? 11
